# Tested on: E. faecalis VRE 53
# EXPERIMENTAL_DETAILS: MIC, broth microdilution, vancomycin-resistant E. faecalis VRE 53 (VanA)
# Assay type: cell-based, Enterococcus faecalis
# RECORDED_CONDITIONS: Enterococcus faecalis VRE 53 (vancomycin-resistant); read-out: MIC
TEST_READOUT: MIC (µM)
Please respond with the number in µM and leave the unit unwritten.

COMPOUND	UNITS_OF_MEASURE	MIC
CNC(CC(C)C)C(=O)NC1C(=O)NC(CC(N)=O)C(=O)NC2C(=O)NC3C(=O)NC(C(=O)NC(C(=O)NCC(=O)Nc4ccc(C#CC5CCCC5)cc4)c4cc(O)cc(O)c4-c4cc3ccc4O)C(O)c3ccc(c(Cl)c3)Oc3cc2cc(c3OC2OC(CO)C(O)C(O)C2OC2CC(C)(N)C(O)C(C)O2)Oc2ccc(cc2Cl)C1O (centres unmarked)	µM	6.25

Proceed to the following item.
Can you share its MIC? I mean this compound: CNC(CC(C)C)C(=O)NC1C(=O)NC(CC(N)=O)C(=O)NC2C(=O)NC3C(=O)NC(C(=O)NC(C(=O)NCC(=O)Nc4ccc(-c5ccc(C(C)=O)cc5)cc4)c4cc(O)cc(O)c4-c4cc3ccc4O)C(O)c3ccc(c(Cl)c3)Oc3cc2cc(c3OC2OC(CO)C(O)C(O)C2OC2CC(C)(N)C(O)C(C)O2)Oc2ccc(cc2Cl)C1O (centres unmarked)
12.5

====

# System: Murine leukemia (L1210) cells
# EXPERIMENTAL_DETAILS: Cytostatic activity, L1210 cell proliferation
# Type: cell-based
# RECORDED_CONDITIONS: mean ± SD of three experiments; highest concentration tested 250 µM; 2 days; read-out: Toxicity (IC50) L1210
TEST_READOUT: IC50 (µM)
Enter your answer as a number in µM; do not include the unit.

Consider the compound CNC(CC(C)C)C(=O)NC1C(=O)NC(CC(N)=O)C(=O)NC2C(=O)NC3C(=O)NC(C(=O)NC(C(=O)NCC(=O)Nc4ccc(-c5cn(-c6ccc(OC)cc6)nn5)cc4)c4cc(O)cc(O)c4-c4cc3ccc4O)C(O)c3ccc(c(Cl)c3)Oc3cc2cc(c3OC2OC(CO)C(O)C(O)C2OC2CC(C)(N)C(O)C(C)O2)Oc2ccc(cc2Cl)C1O (centres unmarked) and give its measured IC50.
173

====

// reported MIC-fold improvement vs. vancomycin for each item listed
# Tested on: MRSA KS1
# EXPERIMENTAL_DETAILS: MIC, broth microdilution, MRSA KS1
# Format: cell-based, Staphylococcus aureus
# RECORDED_CONDITIONS: MRSA KS1; ratio of MIC of vancomycin and MIC of analogue
No unit in the answer, please; the number alone is enough.

Worked cases, answers included:
MOLECULE	MIC-fold improvement vs. vancomycin
CCOc1ccc(-c2ccc(NC(=O)CNC(=O)C3NC(=O)C4NC(=O)C(NC(=O)C5NC(=O)C(CC(N)=O)NC(=O)C(NC(=O)C(CC(C)C)NC)C(O)c6ccc(c(Cl)c6)Oc6cc5cc(c6OC5OC(CO)C(O)C(O)C5OC5CC(C)(N)C(O)C(C)O5)Oc5ccc(cc5Cl)C4O)c4ccc(O)c(c4)-c4c(O)cc(O)cc43)cc2)cc1 (stereo not drawn)	4
CC(=O)NC[C@H]1CN(c2ccc(N3CCOCC3)c(F)c2)C(=O)O1 [Linezolid, reference compound]	0.05
CNC(CC(C)C)C(=O)NC1C(=O)NC(CC(N)=O)C(=O)NC2C(=O)NC3C(=O)NC(C(=O)NC(C(=O)NCCCNC(=O)c4ccc(-c5ccc(F)cc5)cc4)c4cc(O)cc(O)c4-c4cc3ccc4O)C(O)c3ccc(c(Cl)c3)Oc3cc2cc(c3OC2OC(CO)C(O)C(O)C2OC2CC(C)(N)C(O)C(C)O2)Oc2ccc(cc2Cl)C1O (stereo not drawn)	4
CNC(CC(C)C)C(=O)NC1C(=O)NC(CC(N)=O)C(=O)NC2C(=O)NC3C(=O)NC(C(=O)NC(C(=O)NCC(=O)Nc4ccc(-c5ccc(Cl)cc5)cc4)c4cc(O)cc(O)c4-c4cc3ccc4O)C(O)c3ccc(c(Cl)c3)Oc3cc2cc(c3OC2OC(CO)C(O)C(O)C2OC2CC(C)(N)C(O)C(C)O2)Oc2ccc(cc2Cl)C1O (stereo not drawn)	8
CN[C@H](CC(C)C)C(=O)N[C@H]1C(=O)N[C@@H](CC(N)=O)C(=O)N[C@H]2C(=O)N[C@H]3C(=O)N[C@H](C(=O)N[C@H](C(=O)NCC(=O)Nc4ccc(OC)c(OC)c4)c4cc(O)cc(O)c4-c4cc3ccc4O)[C@H](O)c3ccc(c(Cl)c3)Oc3cc2cc(c3O[C@@H]2O[C@H](CO)[C@@H](O)[C@H](O)[C@H]2O[C@H]2C[C@](C)(N)[C@H](O)[C@H](C)O2)Oc2ccc(cc2Cl)[C@H]1O	1
CN[C@H](CC(C)C)C(=O)N[C@H]1C(=O)N[C@@H](CC(N)=O)C(=O)N[C@H]2C(=O)N[C@H]3C(=O)N[C@H](C(=O)N[C@H](C(=O)NCCCNC(=O)c4ccc5ccccc5c4)c4cc(O)cc(O)c4-c4cc3ccc4O)[C@H](O)c3ccc(c(Cl)c3)Oc3cc2cc(c3O[C@@H]2O[C@H](CO)[C@@H](O)[C@H](O)[C@H]2O[C@H]2C[C@](C)(N)[C@H](O)[C@H](C)O2)Oc2ccc(cc2Cl)[C@H]1O	2

Param readout= MIC-fold improvement vs. vancomycin; system= MRSA KS1; entry= CCCCCCCCCC(=O)N[C@@H](Cc1c[nH]c2ccccc12)C(=O)N[C@H](CC(N)=O)C(=O)N[C@@H](CC(=O)O)C(=O)N[C@@H]1C(=O)NCC(=O)N[C@@H](CCCN)C(=O)N[C@@H](CC(=O)O)C(=O)N[C@H](C)C(=O)N[C@@H](CC(=O)O)C(=O)NCC(=O)N[C@H](CO)C(=O)N[C@@H]([C@H](C)CC(=O)O)C(=O)N[C@@H](CC(=O)c2ccccc2N)C(=O)O[C@@H]1C [Daptomycin, reference compound] ; returns value.
0.05

Given the entry CNC(CC(C)C)C(=O)NC1C(=O)NC(CC(N)=O)C(=O)NC2C(=O)NC3C(=O)NC(C(=O)NC(C(=O)NCCNC(=O)C4c5ccccc5-c5ccccc54)c4cc(O)cc(O)c4-c4cc3ccc4O)C(O)c3ccc(c(Cl)c3)Oc3cc2cc(c3OC2OC(CO)C(O)C(O)C2OC2CC(C)(N)C(O)C(C)O2)Oc2ccc(cc2Cl)C1O (stereo not drawn) , what MIC-fold improvement vs. vancomycin was observed with MRSA KS1?
1

# returns recorded MIC-fold improvement vs. vancomycin (system: MRSA KS1) for C#Cc1ccc(/C=C/C(=O)NCCNC(=O)[C@H]2NC(=O)[C@H]3NC(=O)[C@H](NC(=O)[C@@H]4NC(=O)[C@H](CC(N)=O)NC(=O)[C@H](NC(=O)[C@@H](CC(C)C)NC)[C@H](O)c5ccc(c(Cl)c5)Oc5cc4cc(c5O[C@@H]4O[C@H](CO)[C@@H](O)[C@H](O)[C@H]4O[C@H]4C[C@](C)(N)[C@H](O)[C@H](C)O4)Oc4ccc(cc4Cl)[C@H]3O)c3ccc(O)c(c3)-c3c(O)cc(O)cc32)cc1
2

Please provide the recorded MIC-fold improvement vs. vancomycin for CN(C)c1cc(NC(=O)CNC(C)(C)C)c(O)c2c1C[C@H]1C[C@H]3[C@H](N(C)C)C(O)=C(C(N)=O)C(=O)[C@@]3(O)C(O)=C1C2=O [Tigecycline, reference compound] , tested on MRSA KS1.
0.5

# query: MIC-fold improvement vs. vancomycin | item CNC(CC(C)C)C(=O)NC1C(=O)NC(CC(N)=O)C(=O)NC2C(=O)NC3C(=O)NC(C(=O)NC(C(=O)NCCCNC(=O)c4cc5ccccc5s4)c4cc(O)cc(O)c4-c4cc3ccc4O)C(O)c3ccc(c(Cl)c3)Oc3cc2cc(c3OC2OC(CO)C(O)C(O)C2OC2CC(C)(N)C(O)C(C)O2)Oc2ccc(cc2Cl)C1O (stereo not drawn) | system: MRSA KS1
2

Write down the reported MIC-fold improvement vs. vancomycin of CNC(CC(C)C)C(=O)NC1C(=O)NC(CC(N)=O)C(=O)NC2C(=O)NC3C(=O)NC(C(=O)NC(C(=O)NCCCNC(=O)c4ccc5cc(O)ccc5c4)c4cc(O)cc(O)c4-c4cc3ccc4O)C(O)c3ccc(c(Cl)c3)Oc3cc2cc(c3OC2OC(CO)C(O)C(O)C2OC2CC(C)(N)C(O)C(C)O2)Oc2ccc(cc2Cl)C1O (stereo not drawn) , test system: MRSA KS1.
2

====

# Tested on: human T-lymphocyte (CEM) cells
# EXPERIMENTAL_DETAILS: Cytostatic activity, CEM cell proliferation
# Assay type: cell-based
# RECORDED_CONDITIONS: mean ± SD of three experiments; highest concentration tested 250 µM; 3 days; read-out: Toxicity (IC50) CEM
pIC50: recorded values
Just the number, please; pIC50 means minus log10 of the concentration in mol/L.

COMPOUND	pIC50
CN[C@H](CC(C)C)C(=O)N[C@H]1C(=O)N[C@@H](CC(N)=O)C(=O)N[C@H]2C(=O)N[C@H]3C(=O)N[C@H](C(=O)N[C@H](C(=O)NCCNC(=O)/C=C/c4ccc(NS(=O)(=O)c5ccc(Cl)cc5Cl)cc4)c4cc(O)cc(O)c4-c4cc3ccc4O)[C@H](O)c3ccc(c(Cl)c3)Oc3cc2cc(c3O[C@@H]2O[C@H](CO)[C@@H](O)[C@H](O)[C@H]2O[C@H]2C[C@](C)(N)[C@H](O)[C@H](C)O2)Oc2ccc(cc2Cl)[C@H]1O	3.68

We now examine a further compound.
Requested field: pIC50. Item: CCCCCCCc1ccc(C(=O)NCCCNC(=O)C2NC(=O)C3NC(=O)C(NC(=O)C4NC(=O)C(CC(N)=O)NC(=O)C(NC(=O)C(CC(C)C)NC)C(O)c5ccc(c(Cl)c5)Oc5cc4cc(c5OC4OC(CO)C(O)C(O)C4OC4CC(C)(N)C(O)C(C)O4)Oc4ccc(cc4Cl)C3O)c3ccc(O)c(c3)-c3c(O)cc(O)cc32)cc1 (centres unmarked)
4.77
